B1: LINE1-full (parent)
chain: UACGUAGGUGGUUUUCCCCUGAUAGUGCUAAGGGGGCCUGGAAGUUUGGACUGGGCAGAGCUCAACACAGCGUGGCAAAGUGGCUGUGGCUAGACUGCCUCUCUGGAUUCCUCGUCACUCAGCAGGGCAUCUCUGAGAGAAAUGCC

Variants of: B1
Experiment: self-cleavage, relative activity (ratio to wild type); higher = more cleavage; in vitro, sequencing; the parent is a self-cleaving ribozyme
Categories are defined by ranges of self-cleavage, namely bottom end: < 0.2; midrange: ≥ 0.2 and < 1; top end: ≥ 1

[
  {
    "Mutation": "A64G C113A",
    "Class Label": "bottom end"
  },
  {
    "Mutation": "G10A U96C",
    "Class Label": "bottom end"
  },
  {
    "Mutation": "A69U U96C",
    "Class Label": "bottom end"
  },
  {
    "Mutation": "G106A U119A",
    "Class Label": "midrange"
  },
  {
    "Mutation": "U20A A67U",
    "Class Label": "bottom end"
  },
  {
    "Mutation": "U5C U108G",
    "Class Label": "top end"
  },
  {
    "Mutation": "G82A A136G",
    "Class Label": "top end"
  },
  {
    "Mutation": "A69U U119C",
    "Class Label": "bottom end"
  },
  {
    "Mutation": "U14A A121G",
    "Class Label": "midrange"
  },
  {
    "Mutation": "U47C",
    "Class Label": "top end"
  },
  {
    "Mutation": "U20C A77G",
    "Class Label": "top end"
  },
  {
    "Mutation": "U100A A138G",
    "Class Label": "top end"
  },
  {
    "Mutation": "U13G A30U",
    "Class Label": "midrange"
  },
  {
    "Mutation": "G72U U91C",
    "Class Label": "midrange"
  },
  {
    "Mutation": "U5A U85A",
    "Class Label": "bottom end"
  },
  {
    "Mutation": "U13C G25A",
    "Class Label": "top end"
  },
  {
    "Mutation": "A50G U134C",
    "Class Label": "midrange"
  },
  {
    "Mutation": "A43U A94G",
    "Class Label": "bottom end"
  }
]
